Hello, the source for this data is PubChem BioAssay AID1347076, in case you need it.

procedure text: qHTS assay for MDR1-selective chemotherapeutics: Primary screen using the drug-selected MDR subline cells KB-V1; further: nearly all actives have a fitted effect of over 60% in size; further: potency means the concentration at half of the fitted maximal effect
assay context: KB-V1 MDR cells viability, CellTiter-Glo, 72 h; series mostly up to 46.1 µM
Screen size: about 400,000 compounds; about 13,000 (3.2%) were called active. Another 18% or so got no clear call; they are omitted. The list comes from a sample in which actives are over-represented; it also holds close analogues and randomly drawn compounds.
measurement label: Potency

CCc1ccc(NC(=O)c2ccc(Cn3cc([N+](=O)[O-])cn3)cc2)cc1    4.61 µM (active)
Cc1cc(C(=O)CSc2nc(N)cc(=O)[nH]2)c(C)n1-c1cccc(F)c1    3.66 µM (active)
O=C(CN1CCOCC1)N1CCCc2c1c(=O)oc1ccc(OCc3ccccc3)cc21    18.4 µM (active)
O=C(CSc1nnc(-c2cccs2)n1Cc1ccccc1)N1CCc2ccccc2C1    inactive
Cc1ccc2nc(COc3cccc(NC(=O)c4cccc(Cl)c4)c3)cc(=O)n2c1    inactive
COC(=O)[C@]12CCCCC=C1N(Cc1ccc3c(c1)OCO3)C(=O)[C@H](CC(=O)N1CCOCC1)C2    inactive
CC(C)c1cc(C(N)=O)c(NC(=O)c2cccc(COc3ccc(Br)cc3)c2)s1    20.6 µM (active)
O=C(CSc1ncc(CO)n1Cc1ccc(Cl)cc1)NCc1ccc(F)cc1    inactive
Clc1ccc2nc(-c3ccccc3)nc(C(Cl)Cl)c2c1    3.66 µM (active)
COC(=O)c1cc2occc2n1Cc1nc(-c2ccc(C)cc2)oc1C    inactive

*Q* Given the entry C=CCNC(=O)c1ccc2nc(-c3ccco3)c(-c3ccco3)nc2c1 , report its measured Potency.
*A* inactive

###

procedure text: qHTS assay for MDR1-selective chemotherapeutics: Primary screen using the drug-selected MDR subline cells KB-V1; further: nearly all actives have a fitted effect of over 60% in size
assay context: KB-V1 MDR cells viability, CellTiter-Glo, 72 h; series mostly up to 46.1 µM
Hit rate of the full screen: of about 400,000 compounds, about 13,000 (3.2%) were called active. Another 18% or so got no clear call; they are omitted. Calls come from the whole dose curve; as a rule, active = well fitted cell-killing curve with a large enough effect; inconclusive = small, poorly fitted or top-dose-only effect, or effect the other way; inactive = flat fitted curve, though single readings scatter. The full list was thinned out, with actives kept by preference.
Please reply with one of these outcomes: active, inactive

*Q* Please let me know the test result on file for CCCc1c(-c2ccccc2F)ncn1Cc1ccccc1OC .
*A* active

*Q* Which outcome did this test record for the compound Cc1ccc(NC(=O)c2cc3ccccc3o2)cc1 ?
*A* inactive

*Q* Please indicate how the test categorized COc1ccccc1Cc1c(-c2ccc(Cl)cc2)nc2c3ccccc3ccn12 .
*A* inactive

*Q* Could you please tell me the result logged for COc1cccc(OC)c1C(=O)N1CCN(Cc2ccccc2F)CC1 in this assay?
*A* inactive

*Q* Hi, sorry to bother you, what did the test record for CN(C)C(CNC(=O)Cc1ccc([N+](=O)[O-])cc1)c1ccccc1 (stereo unspecified) ?
*A* inactive

*Q* Record lookup: outcome of this test for CN(C)C(CNC(=O)c1cc2ccccc2o1)c1ccccc1 (stereo unspecified) ?
*A* active

*Q* // return assay outcome for Cc1cccc(-n2c(N)c(C(=O)N3CCN(C)CC3)sc2=S)c1
*A* inactive

*Q* Which outcome did this test record for the compound CCCCc1c(-c2ccc(Br)cc2)ncn1CCc1ccccc1OC ?
*A* active

*Q* Look up the recorded call for CCCCc1c(-c2ccc(Cl)cc2)ncn1CCc1ccccc1OC in this test.
*A* active

*Q* Dear all, I need the recorded test outcome for Oc1ccc(Br)cc1C1C=C(c2ccc3c(c2)OCO3)NC(c2ccc(Cl)cc2)N1 (stereo unspecified) , thank you.
*A* inactive

*Q* How did this test come out for CCCCNS(=O)(=O)CCNCc1ccccc1OC ?
*A* inactive

###

procedure text: qHTS assay for MDR1-selective chemotherapeutics: Primary screen using the drug-selected MDR subline cells KB-V1; further: nearly all actives have a fitted effect of over 60% in size
assay context: KB-V1 MDR cells viability, CellTiter-Glo, 72 h; series mostly up to 46.1 µM
Out of some 400,000 compounds screened, about 13,000 (3.2%) were called active. Not shown: some 18% with an inconclusive outcome. Calls follow the shape of the dose curve; as a rule, active = well fitted cell-killing curve with a large enough effect; inconclusive = small, poorly fitted or top-dose-only effect, or effect the other way; inactive = flat fitted curve, though single readings scatter. Only a selection was taken, and actives are over-represented in it overall.
Parameter call: string, one of active, inactive

*Q* Lab log entry: COc1ccc(CC(N)c2csc(NC(=O)Cc3ccccc3)n2)cc1 (configuration not stated) — outcome as called in the assay?
*A* inactive

*Q* Query: recorded result category for CCCC1=Nc2cc(C(=O)NCc3ccco3)ccc2Sc2ccccc21 in this test
*A* active

*Q* Record lookup: outcome of this test for CCc1oc(-c2ccc(OC)cc2)c(C(=O)OCCCCCO)c1C(C)OCCO (configuration not stated) ?
*A* inactive

*Q* Field: outcome | Entry: Nc1ccccc1-c1nc2ccncc2[nH]1
*A* inactive

*Q* How did this test come out for COc1ccc(CCNC(=O)Cn2c(=O)n(-c3ccccc3)c(=O)c3c(C)c(C)sc32)cc1OC ?
*A* inactive

*Q* Which outcome was assigned to CCOc1ccc(S(=O)(=O)Nc2ccc(OC)nc2)cc1 in this test?
*A* inactive

*Q* So what was the verdict on COc1cccc(N(CC(=O)NC2CCCC2)C(=O)Cn2nnc(-c3ccc(C)cc3)n2)c1 in this test?
*A* inactive

*Q* Just curious, what result did O=C(Nc1cccn(Cc2ccccc2Cl)c1=O)NC1CCCCC1 get here?
*A* inactive

*Q* What call does the record list for Cn1c(=O)c2c(SCC(=O)NCC3CCCO3)nc(-c3ccccc3F)nc2n(C)c1=O (configuration not stated) ?
*A* inactive

*Q* Status in this test for C/C(=N\NC(=O)CSc1nc2ccccc2c(=O)n1-c1ccccc1C)c1cccs1 ?
*A* active

*Q* Could you check what this test reported for COc1ccccc1N1CCN(C(=O)c2cc(=O)c3cc(C)cc(C)c3o2)CC1 ?
*A* active

*Q* Any idea what this test logged for COc1ccc(S(=O)(=O)Nc2cccnc2)c(Cl)c1Cl ?
*A* inactive

*Q* Could you please tell me the result logged for O=C(Cn1nnc(-c2ccccc2)n1)NC(=O)NC1CCCC1 in this assay?
*A* inactive

*Q* I'd appreciate the recorded outcome for O=c1c(=O)n(Cc2c(F)cccc2Cl)ccn1Cc1ccccc1 from this test.
*A* inactive

*Q* # outcome recorded in this test, key = O=C(NC1CCCC1)C1c2ccccc2OCC(=O)N1Cc1ccccc1 (configuration not stated)
*A* inactive

*Q* What is the recorded call for this compound in the test? COc1ccccc1N1CCN(C(=O)c2c(-c3c(Cl)cccc3Cl)noc2C)CC1
*A* inactive

*Q* Just curious, what result did COc1cccc(NC(=O)C2(C)CCN2C(=O)CCC2CCCC2)c1 (configuration not stated) get here?
*A* inactive

*Q* Which outcome did this test record for the compound CCCC1=Nc2cc(C(=O)NCCN3CCCC3)ccc2Sc2ccccc21 ?
*A* inactive

*Q* Give the logged outcome of this assay for the following compound: COc1ccccc1Oc1ccc(S(=O)(=O)Nc2cccnc2)cc1
*A* active

*Q* # fetch the recorded call for Cc1ccc(Sc2ccc(NC(=O)c3ccc(F)cc3)cc2C#N)cc1 here
*A* inactive

*Q* Could you check what this test reported for C/C(=N\NC(=O)COc1c(C)cccc1C)c1cccs1 ?
*A* inactive

*Q* Check the results log: what was the call for Cc1nn(-c2ccccc2)c(C)c1/C=N/NC(=O)CSc1nc2ccccc2c(=O)n1-c1ccccc1 ?
*A* inactive

###

procedure text: qHTS assay for MDR1-selective chemotherapeutics: Primary screen using the drug-selected MDR subline cells KB-V1; further: nearly all actives have a fitted effect of over 60% in size
assay context: KB-V1 MDR cells viability, CellTiter-Glo, 72 h; series mostly up to 46.1 µM
About 13,000 (3.2%) of roughly 400,000 compounds were called active. About 18% were inconclusive and are not listed. Calls come from the whole dose curve; as a rule, active = well fitted cell-killing curve with a large enough effect; inconclusive = small, poorly fitted or top-dose-only effect, or effect the other way; inactive = flat fitted curve, though single readings scatter. This excerpt belongs to a sample that is enriched for actives.
One label from this list, please: active, inactive

*Q* Recorded call for O=C(O)C1CCCCC1C(=O)Nc1ccc(Cl)cc1 (stereo not drawn) ?
*A* inactive

*Q* Assay outcome for C[C@@H]1CC2=C(C(=O)OC(C)(C)O2)[C@@H](C2CC2)O1 : what was it?
*A* inactive

*Q* What classification did COc1cc2ccccc2cc1C(=O)Nc1ccc(NC(=O)c2cccs2)cc1 end up with in this test?
*A* inactive

*Q* Hi team, can someone confirm the assay call for CCCS(=O)(=O)c1c(Nc2ccccc2C)sc(C(=O)c2ccccc2)c1N ?
*A* inactive

*Q* Fill in: this test's call for Cc1ccccc1NC(=O)c1ccc(COc2ccc3c(C)cc(=O)oc3c2)cc1 is ___
*A* inactive

*Q* Test call for this compound, please: COc1ccc(CCNC(=O)/C(C#N)=C2\N=C(NC(=O)c3cccs3)c3ccccc32)cc1
*A* active

*Q* Hello, I am checking results. What call was entered for Cc1cccc(C(=O)OCC(=O)Nc2ccc(F)cc2)c1 ?
*A* inactive

*Q* Answer briefly: the call reported for CCOC(=O)C1(C)CCCN(C(=O)c2ccc(F)c(Cl)c2)C1 (stereo not drawn) in this assay.
*A* inactive

*Q* Identify the outcome logged in this assay for the compound shown: Cc1ccccc1CN1CCN(C(=O)c2cccc(F)c2)CC1
*A* inactive

*Q* Which outcome was entered for the compound O=C(NCCOc1ccccc1)c1ccccc1F in this test?
*A* inactive

*Q* Entry OC[C@@H]1CN(Cc2ccc3c(c2)OCO3)C[C@H](n2cnc3c(NCc4ccco4)ncnc32)O1 : call = ?
*A* inactive

*Q* For Cc1ccccc1CS(=O)(=O)CC1(O)CCN(C(=O)c2cccc(C(F)(F)F)c2)CC1 , what call appears in the results of this test?
*A* active

*Q* What did this assay record as the result for CCOC(=O)N1CCN(C(=O)c2ccc(S(=O)(=O)Nc3cccc(C(F)(F)F)c3)cc2)CC1 ?
*A* inactive

*Q* Lab log entry: CCn1c(=N)n(CC(=O)c2cccc(OC)c2)c2ccccc21 — outcome as called in the assay?
*A* active

*Q* Query: recorded result category for CN(C)C(CNC(=O)c1cc(Br)c(Br)s1)c1ccco1 (stereo not drawn) in this test
*A* inactive

*Q* Status in this test for O=C(CCc1nc2sc3c(c2c(=O)[nH]1)CCCC3)NCC(=O)Nc1ccccc1Br ?
*A* inactive

*Q* Can you look up the reported call for COc1ccc2cc(C(=O)O)n(CC(=O)c3ccccc3)c2c1 for me?
*A* inactive

*Q* Hi team, can someone confirm the assay call for Cc1ccccc1N1CCN(CCCOc2ccc3c(C)cc(=O)oc3c2)CC1 ?
*A* active

*Q* For Cc1cc(OCC(=O)Nc2nccs2)c2c(C)c(C)c(=O)oc2c1 , which call appears in the assay record?
*A* inactive

*Q* Please let me know the test result on file for COc1ccc(NC(C)=O)cc1NC(=O)CN1CCN(c2ccc(F)cc2)CC1 .
*A* inactive

*Q* Which outcome did this test record for the compound CCCn1nc(NS(=O)(=O)c2ccccc2)c2cc3cc(C)ccc3nc21 ?
*A* active

*Q* Could you kindly confirm the outcome this assay logged for Cc1ccccc1S(=O)(=O)NC(=O)C1(C)CCN1C(=O)C1(c2ccc(Cl)cc2)CC1 (stereo not drawn) ?
*A* inactive

*Q* So what was the verdict on Cc1ccccc1N1CCN(CC(=O)NCc2ccc(Cl)cc2)CC1 in this test?
*A* inactive

*Q* Name the outcome recorded for Cc1cc(C)cc(NC(=O)CSCc2cnn(-c3ccccc3)c2-n2cccc2)c1 in the assay.
*A* active

*Q* Identify the outcome logged in this assay for the compound shown: CCCn1nc(NC(=O)C(C)C)c2cc3cc(OC)ccc3nc21
*A* inactive

*Q* Outcome? CCOC(=O)c1ccc(NC(=O)C2CC(=O)N(c3ccc4c(c3)OCCO4)C2)cc1 (stereo not drawn)
*A* inactive

*Q* Hi, sorry to bother you, what did the test record for CC(=O)Nc1ccc(NC(=O)CSCc2cnn(-c3ccccc3)c2-n2cccc2)cc1 ?
*A* inactive

*Q* // return assay outcome for CS(=O)(=O)c1cccc(-c2ccc3nncn3c2)c1
*A* inactive

*Q* State the result this test recorded for C/C(=C\c1ccccc1)C1NC(=O)c2c(sc3c2CCCC3)N1 (stereo not drawn) .
*A* inactive

*Q* Outcome? O=C(Nc1ncccc1O)c1ccc(C(=O)c2ccccc2)cc1
*A* active

*Q* Identify the outcome logged in this assay for the compound shown: CCOc1ccc(CNCc2c(C(=O)O)c(C)n(Cc3cccc(OC)c3)c2C)cc1OC
*A* inactive

*Q* Any idea what this test logged for Cc1nnc(NC(=O)Nc2ccc(Cl)c(Cl)c2)s1 ?
*A* active

*Q* Could you kindly confirm the outcome this assay logged for Cc1ccc(NC(=O)Nc2nnc(-c3ccncc3)s2)cc1 ?
*A* inactive

*Q* Write down the call the test reported for this compound. Item: COc1cccc(C(=O)Nc2cccnc2)c1OC
*A* inactive

*Q* # lookup: test call for CN(C)c1ccc(/C=N\Nc2ccc([N+](=O)[O-])cc2[N+](=O)[O-])cc1Cl
*A* inactive

*Q* Please share the test call associated with COc1ccc(NC(C(=O)Nc2cccc(C(C)=O)c2)c2ccccc2)cc1 (stereo not drawn) .
*A* active

*Q* Returns: the outcome recorded for CCOc1ccc(NC(=O)c2cnn(-c3ccccc3)c2-n2cccc2)cc1 in this assay.
*A* inactive

*Q* What was the test verdict on CC1(C(=O)NS(=O)(=O)c2cccc(F)c2)CCN1C(=O)c1cccc2ccccc12 (stereo not drawn) ?
*A* inactive

*Q* Which outcome was assigned to COc1ccc(-c2ccc(=O)n(CC(=O)Nc3ccc(Br)cc3F)n2)cc1 in this test?
*A* inactive

*Q* Kindly provide the recorded test outcome for the following compound: COc1ccccc1-n1c(-c2ccc(C)cc2)cn2c3c(=O)n(C)c(=O)n(C)c3nc12
*A* inactive

*Q* Which outcome was assigned to CCCCOC(=O)c1ccc(NC(c2ccc(C)cc2)P(=O)(OC)OC)cc1 (stereo not drawn) in this test?
*A* inactive

*Q* Just curious, what result did Cc1cc(OCCCN2CCN(Cc3ccccc3)CC2)ccc1[N+](=O)[O-] get here?
*A* inactive

*Q* Recorded test outcome, item Cc1ccc(CN(C)C[C@@H]2OCc3cnnn3CCCC(=O)N([C@@H](C)CO)C[C@H]2C)cc1
*A* inactive
